measurementNotes: Cytotoxicity against human NCI-H838 cells harboring wild type EGFR at 500 nM
Format: toxicity, cell-based
experimentalConditions: read-out: INH
reportedProperty: cytotoxicity at 0.5 µM (%)
Note: unit % is implicit; provide only the numeric part.

• COc1cc(N2CCC(N3CCN(C)CC3)CC2)c(C)cc1Nc1nccc(-n2cc(CN[C@H](C)CO)c(-c3ccccc3)n2)n1 = 17.1

stdin: Give recorded cytotoxicity at 0.5 µM. COc1cc(N2CCC(N3CCN(C)CC3)CC2)c(C)cc1Nc1nccc(-n2cc(CNC(CO)C(C)C)c(-c3ccccc3)n2)n1 (stereo unspecified)
stdout: 31.8

stdin: In one line, give reported cytotoxicity at 0.5 µM of the entry "COc1cc(N2CCC(N3CCN(C)CC3)CC2)c(C)cc1Nc1nccc(-n2cc(CNCCO)c(-c3ccccc3)n2)n1" .
stdout: 33.2

stdin: Return reported cytotoxicity at 0.5 µM. Input compound: "COc1cc(N2CCC(N3CCN(C)CC3)CC2)ccc1Nc1ncc(Cl)c(Nc2ccccc2P(C)(C)=O)n1"
stdout: 92.4

stdin: Please indicate cytotoxicity at 0.5 µM recorded for "COc1cc(N2CCC(N3CCN(C)CC3)CC2)c(C)cc1Nc1nccc(-n2cc(CN[C@@H](C)CO)c(-c3ccccc3)n2)n1"
stdout: 14.9

stdin: // fetch cytotoxicity at 0.5 µM given entry COc1cc(N2CCC(N3CCN(C)CC3)CC2)c(C)cc1Nc1nccc(-n2cc(CNC(C)CO)c(-c3ccccc3)n2)n1 (stereo unspecified)
stdout: 25.6
